# System: 377384-186-R-J1-PDC complex spheroid viability
# METHOD SUMMARY: Anticancer human tumor 377384-186-R-J1-PDC patient-derived pancreatic carcinoma cell line growth inhibition [CLK]
# EXPERIMENTAL CONDITIONS: second compound 0.316 µM; first compound 1 µM; active compounds read low
# Description: A high-throughput screen of multi-cell type tumor spheroids was designed to identify active combinations of […] and targeted small molecules. Complex spheroids include a stromal component modeled by human endothelial cells (HUVEC) and fibroblasts modeled by human mesenchymal stem cells (MSCs). […] Compounds. […] If the clinical Cmax for an agent had not been determined, the highest concentration tested was 10 microM. […]
# key: entry, value: viability, T/C
Give just the number in %; leave the unit off.

Below, 8 compounds whose answers are already recorded.
compound="COc1cccc2c1C(=O)c1c(O)c3c(c(O)c1C2=O)CC(O)(C(=O)CO)CC3OC1CC(N)C(O)C(C)O1 (centres undefined) + CNC(=O)c1ccc(Nc2nc(OC3CCCC3)c3c(-c4ccc5nc(C)oc5c4)c[nH]c3n2)c(OC)c1" measured_metric="viability, T/C" quantity_unit=% measurement=0.82
compound="CCc1c2c(nc3ccc(O)cc13)-c1cc3c(c(=O)n1C2)COC(=O)[C@]3(O)CC + CN1CCN(c2cc(C(=O)Nc3cc4cc(-c5cnn(C)c5)ccc4cn3)ccn2)CC1" measured_metric="viability, T/C" quantity_unit=% measurement=0.66
compound="COc1c(OCCCN2CCOCC2)ccc2c3n(c(=NC(=O)c4cnc(N)nc4)nc12)CCN3 + CN1CCN(c2cc(C(=O)Nc3cc4cc(-c5cnn(C)c5)ccc4cn3)ccn2)CC1" measured_metric="viability, T/C" quantity_unit=% measurement=11.9
compound="CC1(C)CCC(CN2CCN(c3ccc(C(=O)NS(=O)(=O)c4ccc(NCC5CCOCC5)c([N+](=O)[O-])c4)c(Oc4cnc5[nH]ccc5c4)c3)CC2)=C(c2ccc(Cl)cc2)C1 + CNC(=O)c1ccc(Nc2nc(OC3CCCC3)c3c(-c4ccc5nc(C)oc5c4)c[nH]c3n2)c(OC)c1" measured_metric="viability, T/C" quantity_unit=% measurement=19
compound="C=CC(=O)N1CCN(c2nc(=O)n(-c3c(C)ccnc3C(C)C)c3nc(-c4c(O)cccc4F)c(F)cc23)C(C)C1 (centres undefined) + CNC(=O)c1ccc(Nc2nc(OC3CCCC3)c3c(-c4ccc5nc(C)oc5c4)c[nH]c3n2)c(OC)c1" measured_metric="viability, T/C" quantity_unit=% measurement=25
compound="CC(=O)O[C@H]1C(=O)[C@@]2(C)[C@H]([C@H](OC(=O)c3ccccc3)[C@]3(O)C[C@H](OC(=O)[C@H](O)[C@@H](NC(=O)c4ccccc4)c4ccccc4)C(C)=C1C3(C)C)[C@]1(OC(C)=O)CO[C@@H]1C[C@@H]2O + CNC(=O)c1ccc(Nc2nc(OC3CCCC3)c3c(-c4ccc5nc(C)oc5c4)c[nH]c3n2)c(OC)c1" measured_metric="viability, T/C" quantity_unit=% measurement=36.6
compound="O=C(c1cc(Cc2n[nH]c(=O)c3ccccc23)ccc1F)N1CCN(C(=O)C2CC2)CC1 + CN1CCN(c2cc(C(=O)Nc3cc4cc(-c5cnn(C)c5)ccc4cn3)ccn2)CC1" measured_metric="viability, T/C" quantity_unit=% measurement=27.1
compound="C=C(F)C(=O)N1CCN(c2nc(OCC3CCCN3C)nc3c2CCN(c2cccc4cccc(Cl)c24)C3)CC1CC#N (centres undefined) + CNC(=O)c1ccc(Nc2nc(OC3CCCC3)c3c(-c4ccc5nc(C)oc5c4)c[nH]c3n2)c(OC)c1" measured_metric="viability, T/C" quantity_unit=% measurement=22.1

Give me measured viability, T/C, please, for this compound: CC(=O)O[C@H]1C(=O)[C@@]2(C)[C@H]([C@H](OC(=O)c3ccccc3)[C@]3(O)C[C@H](OC(=O)[C@H](O)[C@@H](NC(=O)c4ccccc4)c4ccccc4)C(C)=C1C3(C)C)[C@]1(OC(C)=O)CO[C@@H]1C[C@@H]2O + CN1CCN(c2cc(C(=O)Nc3cc4cc(-c5cnn(C)c5)ccc4cn3)ccn2)CC1
11.4

---

# System: 377384-186-R-J1-PDC complex spheroid viability
# METHOD SUMMARY: Anticancer human tumor 377384-186-R-J1-PDC cell line growth inhibition [CLK];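 also: luminescence signal used as a stand-in for viable cells; spheroids exposed to agents for 7 days before reading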
# EXPERIMENTAL CONDITIONS: second compound 0.1 µM; first compound 0.1 µM; active compounds read low
# Source text: A high-throughput screen of multi-cell type tumor spheroids was designed to identify active combinations of […] and targeted small molecules. Complex spheroids include a stromal component modeled by human endothelial cells (HUVEC) and fibroblasts modeled by human mesenchymal stem cells (MSCs). […] Compounds. […] If the clinical Cmax for an agent had not been determined, the highest concentration tested was 10 microM. […]
MEASURED METRIC: viability, T/C (%)
Respond numerically; units are % and should not be typed.

compound="CC1COCCN1c1cc(C2(S(C)(=N)=O)CC2)nc(-c2ccnc3[nH]ccc23)n1 (stereo not given) + CN1CCN(c2cc(C(=O)Nc3cc4cc(-c5cnn(C)c5)ccc4cn3)ccn2)CC1" measurement=108
compound="CCc1c2c(nc3ccc(O)cc13)-c1cc3c(c(=O)n1C2)COC(=O)[C@]3(O)CC + CNC(=O)c1ccc(Nc2nc(OC3CCCC3)c3c(-c4ccc5nc(C)oc5c4)c[nH]c3n2)c(OC)c1" measurement=2.07
compound="CC(Nc1ccc2c(c1)OCCn1cc(N3C(=O)OCC3C(F)F)nc1-2)C(N)=O (stereo not given) + CNC(=O)c1ccc(Nc2nc(OC3CCCC3)c3c(-c4ccc5nc(C)oc5c4)c[nH]c3n2)c(OC)c1" measurement=61.5
compound="O=C(c1cc(Cc2n[nH]c(=O)c3ccccc23)ccc1F)N1CCN(C(=O)C2CC2)CC1 + CN1CCN(c2cc(C(=O)Nc3cc4cc(-c5cnn(C)c5)ccc4cn3)ccn2)CC1" measurement=89.8
compound="CC1(C)CCC(CN2CCN(c3ccc(C(=O)NS(=O)(=O)c4ccc(NCC5CCOCC5)c([N+](=O)[O-])c4)c(Oc4cnc5[nH]ccc5c4)c3)CC2)=C(c2ccc(Cl)cc2)C1 + CN1CCN(c2cc(C(=O)Nc3cc4cc(-c5cnn(C)c5)ccc4cn3)ccn2)CC1" measurement=101

Provide only the value of recorded viability, T/C for Nc1ccn(C2OC(CO)C(O)C2(F)F)c(=O)n1 (stereo not given) + CNC(=O)c1ccc(Nc2nc(OC3CCCC3)c3c(-c4ccc5nc(C)oc5c4)c[nH]c3n2)c(OC)c1
4.51

State its viability, T/C for this compound: CCN1CCN(Cc2ccc(Nc3ncc(F)c(-c4cc(F)c5nc(C)n(C(C)C)c5c4)n3)nc2)CC1 + CN1CCN(c2cc(C(=O)Nc3cc4cc(-c5cnn(C)c5)ccc4cn3)ccn2)CC1
79.8

Name the recorded viability, T/C of the compound listed here: COc1ccc([C@@H](O)c2cc(-c3ncnc4cc(N5CCOCC5)ccc34)c(F)cc2Cl)nn1 + CNC(=O)c1ccc(Nc2nc(OC3CCCC3)c3c(-c4ccc5nc(C)oc5c4)c[nH]c3n2)c(OC)c1
33.5

Report viability, T/C, nothing else, for this compound: COc1cccc2c1C(=O)c1c(O)c3c(c(O)c1C2=O)CC(O)(C(=O)CO)CC3OC1CC(N)C(O)C(C)O1 (stereo not given) + CNC(=O)c1ccc(Nc2nc(OC3CCCC3)c3c(-c4ccc5nc(C)oc5c4)c[nH]c3n2)c(OC)c1
3.91

Please supply the value of reported viability, T/C for the item CC(=O)O[C@H]1C(=O)[C@@]2(C)[C@H]([C@H](OC(=O)c3ccccc3)[C@]3(O)C[C@H](OC(=O)[C@H](O)[C@@H](NC(=O)c4ccccc4)c4ccccc4)C(C)=C1C3(C)C)[C@]1(OC(C)=O)CO[C@@H]1C[C@@H]2O + CNC(=O)c1ccc(Nc2nc(OC3CCCC3)c3c(-c4ccc5nc(C)oc5c4)c[nH]c3n2)c(OC)c1
16.9

---

# Test system: 377384-186-R-J1-PDC complex spheroid viability
# METHOD SUMMARY: Anticancer human tumor 377384-186-R-J1-PDC cell line growth inhibition [CLK];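 also: luminescence signal used as a stand-in for viable cells; spheroids exposed to agents for 7 days before reading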
# EXPERIMENTAL CONDITIONS: second compound 0.1 µM; first compound 0.316 µM; active compounds read low
MEASURED METRIC: viability, T/C (%)
Answer in %, number only, no unit symbol.

Some molecules with recorded viability, T/C:
molecule="CC(=O)O[C@H]1C(=O)[C@@]2(C)[C@H]([C@H](OC(=O)c3ccccc3)[C@]3(O)C[C@H](OC(=O)[C@H](O)[C@@H](NC(=O)c4ccccc4)c4ccccc4)C(C)=C1C3(C)C)[C@]1(OC(C)=O)CO[C@@H]1C[C@@H]2O + CNC(=O)c1ccc(Nc2nc(OC3CCCC3)c3c(-c4ccc5nc(C)oc5c4)c[nH]c3n2)c(OC)c1" tested_on="377384-186-R-J1-PDC complex spheroid viability" measurement=20.5
molecule="CC(CO)NC(=O)c1cc(-c2ccc(Cl)cc2)nn(-c2cnn(C)c2)c1=O (centres undefined) + CNC(=O)c1ccc(Nc2nc(OC3CCCC3)c3c(-c4ccc5nc(C)oc5c4)c[nH]c3n2)c(OC)c1" tested_on="377384-186-R-J1-PDC complex spheroid viability" measurement=55.4
molecule="CCN1CCN(Cc2ccc(Nc3ncc(F)c(-c4cc(F)c5nc(C)n(C(C)C)c5c4)n3)nc2)CC1 + CN1CCN(c2cc(C(=O)Nc3cc4cc(-c5cnn(C)c5)ccc4cn3)ccn2)CC1" tested_on="377384-186-R-J1-PDC complex spheroid viability" measurement=54.6

In the following, a different molecule is considered.
# return recorded viability, T/C for entry CC(=O)O[C@H]1C(=O)[C@@]2(C)[C@H]([C@H](OC(=O)c3ccccc3)[C@]3(O)C[C@H](OC(=O)[C@H](O)[C@@H](NC(=O)c4ccccc4)c4ccccc4)C(C)=C1C3(C)C)[C@]1(OC(C)=O)CO[C@@H]1C[C@@H]2O + CN1CCN(c2cc(C(=O)Nc3cc4cc(-c5cnn(C)c5)ccc4cn3)ccn2)CC1
10.9
